- measured_on: T1, monomeric soluble human PD-1 extracellular domain (human, UniProt Q15116 25-170)
- T1 construct: extracellular domain; also called recombinant human PD-1 extracellular domain
- assay_summary: SPR (Biacore 8K), 37 C, antibody captured via anti-human IgG, soluble PD-1 ECD as analyte, single cycle kinetics
In this section we review reported Kd values for a set of binders.
// units = nM; emit number, no label

Example cases with answers are listed next.
| binder | Kd, nM |
| --- | --- |
| humCL19v13 (antibody, human IgG1, V domains shown, hu-VH4 + hu-VL1; human IgG1 kappa isotype) VH: QVQLVQSGSELKKPGASVKVSCKAFGYTFTTYPIEWVRQAPGQGLEWMGNFHPYNDDTKYNEGFTGRFVFSVDKSVTTVYLQISSLKAEDTAVYYCARENYGSHGGFVYWGQGTLVTVSS VL: ENQLTQSPSSLSASVGDRVTITCRASSSVISSYLHWYQQKPGKAPKLLIYSTSNLASGVPSRFSGSGSGTDYTLTISSLQPEDFATYYCQQYNSYPLTFGGGTKLEIK | 160 |
| humCL19v9 (antibody, human IgG1, V domains shown, hu-VH3 + hu-VL1; human IgG1 kappa isotype) VH: QVQLVQSGSELKKPGASVKVSCKAFGYTFTTYPIEWMRQAPGQGLEWIGNFHPYNDDTKYNEGFTGRFVLSVDKSSTTVYLQISSLKAEDTAVYYCARENYGSHGGFVYWGQGTLVTVSS VL: ENQLTQSPSSLSASVGDRVTITCRASSSVISSYLHWYQQKPGKAPKLLIYSTSNLASGVPSRFSGSGSGTDYTLTISSLQPEDFATYYCQQYNSYPLTFGGGTKLEIK | 44.8 |
| humCL19v16 (antibody, human IgG1, V domains shown, hu-VH4 + hu-VL4; human IgG1 kappa isotype) VH: QVQLVQSGSELKKPGASVKVSCKAFGYTFTTYPIEWVRQAPGQGLEWMGNFHPYNDDTKYNEGFTGRFVFSVDKSVTTVYLQISSLKAEDTAVYYCARENYGSHGGFVYWGQGTLVTVSS VL: ENVLTQSPATLSLSPGERATLSCRASSSVISSYLHWYQQKPGQAPRLLIYSTSNRATGIPARFSGSGSGTDYTLTISSLEPEDFAVYYCQQYNSYPLTFGGGTKLEIK | 161 |
| humCL19v3 (antibody, human IgG1, V domains shown, hu-VH1 + hu-VL3; human IgG1 kappa isotype) VH: QVQLVQSGAEVKKPGASVKVSCKAFGYTFTTYPIEWMRQAPGKGLEWIGNFHPYNDDTKYNEKFQGRVTLTVDKSSTTVYMELSSLRSEDTAVYYCARENYGSHGGFVYWGQGTLVTVSS VL: ENVLTQSPATLSLSPGERATLSCRASSSVISSYLHWYQQKPGQAPRLLIYSTSNLASGIPARFSGSGSGTDYTLTISSLEPEDFAVYYCQQYNSYPLTFGGGTKLEIK | 37.3 |
| Parental (Clone 19 VH and VL) (antibody, V domains shown, The antibodies were captured through anti-human IgG and the variants were made on human IgG1 kappa, so it is probably a chimeric human IgG1 kappa) VH: QVQLQQSGAELVKPGASVKMSCKAFGYTFTTYPIEWMKQNHGKSLEWIGNFHPYNDDTKYNEKFKGKAKLTVEKSSTTVYLELSRLTSDDSAVYYCARENYGSHGGFVYWGQGTLVTVSG VL: ENVLTQSPAIMSASPGEKVTMTCRASSSVISSYLHWYQQKSGASPKLWIYSTSNLASGVPDRFSGSGSGTSYSLTISSVEAEDAATYYCQQYNSYPLTFGAGTKLEIK | 53.7 |
| humCL19v7 (antibody, human IgG1, V domains shown, hu-VH2 + hu-VL3; human IgG1 kappa isotype) VH: QVQLVQSGAEVKKPGASVKVSCKAFGYTFTTYPIEWVRQAPGKGLEWMGNFHPYNDDTKYNEKFQGRVTMTVDKSTTTVYMELSSLRSEDTAVYYCARENYGSHGGFVYWGQGTLVTVSS VL: ENVLTQSPATLSLSPGERATLSCRASSSVISSYLHWYQQKPGQAPRLLIYSTSNLASGIPARFSGSGSGTDYTLTISSLEPEDFAVYYCQQYNSYPLTFGGGTKLEIK | 64.5 |
| humCL19v8 (antibody, human IgG1, V domains shown, hu-VH2 + hu-VL4; human IgG1 kappa isotype) VH: QVQLVQSGAEVKKPGASVKVSCKAFGYTFTTYPIEWVRQAPGKGLEWMGNFHPYNDDTKYNEKFQGRVTMTVDKSTTTVYMELSSLRSEDTAVYYCARENYGSHGGFVYWGQGTLVTVSS VL: ENVLTQSPATLSLSPGERATLSCRASSSVISSYLHWYQQKPGQAPRLLIYSTSNRATGIPARFSGSGSGTDYTLTISSLEPEDFAVYYCQQYNSYPLTFGGGTKLEIK | 58.9 |
| humCL19v12 (antibody, human IgG1, V domains shown, hu-VH3 + hu-VL4; human IgG1 kappa isotype) VH: QVQLVQSGSELKKPGASVKVSCKAFGYTFTTYPIEWMRQAPGQGLEWIGNFHPYNDDTKYNEGFTGRFVLSVDKSSTTVYLQISSLKAEDTAVYYCARENYGSHGGFVYWGQGTLVTVSS VL: ENVLTQSPATLSLSPGERATLSCRASSSVISSYLHWYQQKPGQAPRLLIYSTSNRATGIPARFSGSGSGTDYTLTISSLEPEDFAVYYCQQYNSYPLTFGGGTKLEIK | 47.5 |
| humCL19v5 (antibody, human IgG1, V domains shown, hu-VH2 + hu-VL1; human IgG1 kappa isotype) VH: QVQLVQSGAEVKKPGASVKVSCKAFGYTFTTYPIEWVRQAPGKGLEWMGNFHPYNDDTKYNEKFQGRVTMTVDKSTTTVYMELSSLRSEDTAVYYCARENYGSHGGFVYWGQGTLVTVSS VL: ENQLTQSPSSLSASVGDRVTITCRASSSVISSYLHWYQQKPGKAPKLLIYSTSNLASGVPSRFSGSGSGTDYTLTISSLQPEDFATYYCQQYNSYPLTFGGGTKLEIK | 57.6 |

Turning now to a further binder:
Task: Write down Kd measured for item humCL19v14 (antibody, human IgG1, V domains shown, hu-VH4 + hu-VL2; human IgG1 kappa isotype) VH: QVQLVQSGSELKKPGASVKVSCKAFGYTFTTYPIEWVRQAPGQGLEWMGNFHPYNDDTKYNEGFTGRFVFSVDKSVTTVYLQISSLKAEDTAVYYCARENYGSHGGFVYWGQGTLVTVSS VL: ENQLTQSPSSLSASVGDRVTITCRASSSVISSYLHWYQQKPGKAPKLLIYSTSNLASGVPSRFSGSGSGTDYTLTISSLQPEDFATYYCQQYRGYPLTFGGGTKLEIK
Output: 80200

Origin of the recorded values: patent US20230312743A1
